Origin of values: the supplement of paper PMC11061612

System: NCI-H2731 (Mesothelioma)
procedure.text: combination Emax (second highest fraction inhibited in the dose matrix, 72 h); higher = more inhibition; extreme values may be limits of the assay
Reported combination Emax is given for each of the following compounds.
Form rule: numeric answer, no unit written next to it.

Guide cases for combination Emax, answers given:
# compound, combination Emax
rows = [
    ("COc1cc2ncnc(Nc3ccc(F)c(Cl)c3)c2cc1OCCCN1CCOCC1 [Gefitinib] + CC(C)n1c(=O)n(C)c2cnc3cc(F)c(-c4ccc(OCCCN5CCCCC5)nc4)cc3c21 [AZD1390] (first compound max 10 µM, 7x7, partner max 0.3 µM)", 0.0304),
    ("C[C@@H]1COCCN1c1cc(C2([S@](C)(=N)=O)CC2)nc(-c2ccnc3[nH]ccc23)n1 [AZD6738] + Nc1ccn([C@@H]2O[C@H](CO)[C@@H](O)C2(F)F)c(=O)n1 [Gemcitabine] (first compound max 10 µM, 7x7, partner max 0.3 µM)", 0.511),
    ("N#Cc1cnc(Nc2cc(NC[C@H]3CNCCO3)c(C(F)(F)F)cn2)cn1 [SRA737] + CCc1c2c(nc3ccc(O)cc13)-c1cc3c(c(=O)n1C2)COC(=O)[C@]3(O)CC [SN-38] (first compound max 10 µM, 7x7, partner max 0.3 µM)", 0.478),
]

For the compound shown here, Cn1cnc2c(F)c(Nc3ccc(Br)cc3Cl)c(C(=O)NOCCO)cc21 [Selumetinib] + C[C@@H]1COCCN1C2=NC(=NC(=C2)C3(CC3)[S@](=N)(=O)C)C4=C5C=CNC5=NC=C4 [AZD6738] (first compound max 10 µM, 7x7, partner max 10 µM) , give the reported combination Emax.
0.173
